Every entry's value here was drawn from paper PMC11694611.

- Tested on: FLT3-wild type HL60 cells
- method: Cytotoxicity by MTS assay, control cell line HL60
- Type: cell-based
- condition: Homo sapiens, HL-60; Table 4; control analogues lacking boronic group; read-out: HL60 (IC50, mean±SEM)
Provide the recorded IC50 for the entries that follow.

{"compound": "CCCCn1cc(-c2ccc(N)cc2)nn1 [6 e, 4‐(1‐butyl‐1H‐1,2,3‐triazol‐4‐yl)aniline]", "IC50": "> 100 µM"}

As a next step, examine the compound that follows.
Record lookup: for FLT3-wild type HL60 cells, what IC50 belongs to Nc1ccc(-c2cn(CC(=O)O)nn2)cc1 [5 e] ? > 100 µM

###

- Test system: MOLM-14 cells (FLT3-ITD)
- method: Cell viability by MTS assay, MOLM-14 cells
- Type: cell-based
- condition: Homo sapiens, Table 4, control analogues lacking boronic group, read-out: MOLM-14 (IC50, mean±SEM)
pIC50: −log10 of the molar value.
readout.type: pIC50

{"chemical.smiles": "Nc1ccc(-c2cn(CC(=O)O)nn2)cc1", "target.under.test": "MOLM-14 cells (FLT3-ITD)", "observed.result": "< 4.00"}

As a next step, examine the molecule that follows.
Record lookup: for MOLM-14 cells (FLT3-ITD), what pIC50 belongs to CCCCn1cc(-c2ccc(N)cc2)nn1 ? < 4.00

###

Provide the recorded IC50 for the entries that follow.
- target.under.test: recombinant His-tagged FLT3 kinase domain (aa 569–992) (Homo sapiens, UniProt P36888)
- Construct: FLT3 kinase domain (aa 569–992); His; made in house; host or cells: Sf9 cells
- Sequence (P36888 569-992): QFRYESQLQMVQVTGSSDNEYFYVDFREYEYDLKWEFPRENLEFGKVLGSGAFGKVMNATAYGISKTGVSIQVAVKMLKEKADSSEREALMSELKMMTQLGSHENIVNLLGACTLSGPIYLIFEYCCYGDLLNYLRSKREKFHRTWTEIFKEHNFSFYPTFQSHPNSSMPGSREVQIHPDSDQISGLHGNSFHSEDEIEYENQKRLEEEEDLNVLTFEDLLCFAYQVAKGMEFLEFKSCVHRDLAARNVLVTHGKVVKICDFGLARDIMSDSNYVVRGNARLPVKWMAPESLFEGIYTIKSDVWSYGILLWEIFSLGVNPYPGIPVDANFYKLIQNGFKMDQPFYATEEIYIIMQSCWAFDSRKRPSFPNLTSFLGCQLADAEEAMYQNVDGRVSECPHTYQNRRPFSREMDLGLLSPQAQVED
- method: ELISA-based in vitro FLT3 kinase assay
- Format: biochemical
- condition: Table 1; recombinant FLT3, 300 μM ATP; read-out: FLT3 Kinase Activity (IC50, mean±SEM)
- Experimental: In vitro kinase assays and cell viability assays were performed as described (Mologni et al., 2022).[50] Briefly, recombinant His‐tagged FLT3 kinase domain (aa 569–992) was expressed in Sf9 cells and purified by nickel ion affinity chromatography. […] Cell viability was determined by MTS assay using the CellTiter 96® AQueous One Solution Cell Proliferation Assay kit (Promega) according to manufacturer's instructions. […]

{"compound": "NS(=O)(=O)c1cccc(-c2cn(CB(O)O)nn2)c1 [4 f]", "IC50": "> 100 µM"}
{"compound": "Cc1onc(-c2ccccc2Cl)c1C(=O)NCB(O)O [1 c]", "IC50": "> 100 µM"}
{"compound": "CC(=O)NC(Cn1cc(-c2ccccc2)nn1)B(O)O (stereo not shown) [2 d]", "IC50": "> 100 µM"}
{"compound": "O=C(Cc1cccs1)NC(B(O)O)c1ccccc1 (stereo not shown) [1 d]", "IC50": "> 100 µM"}
{"compound": "CC(C)C(NS(=O)(=O)Cc1ccccc1)B(O)O (stereo not shown) [3 b]", "IC50": "> 100 µM"}
{"compound": "O=C(Nc1ccccc1)NC(Cc1cccc(C(=O)O)c1)B(O)O (stereo not shown) [1 a]", "IC50": "> 100 µM"}

Hi there! I need IC50 for each item below, if you can.
1. Cc1ccc(S(=O)(=O)Nc2cccc(-c3cn(CB(O)O)nn3)c2)cc1 [4 a]
2. Cc1cccc(-c2cn(CB(O)O)nn2)c1 [4 d]
3. O=C(O)c1cccc(-c2cn(CB(O)O)nn2)c1 [4 c]
4. O=C(CSc1ccncc1)NCB(O)O [1 f]
5. NC(=O)c1cn(CC(NC(=O)Cc2cccs2)B(O)O)nn1 (stereo not shown) [2 b]

1. 18 µM
2. 25 µM
3. > 100 µM
4. > 100 µM
5. > 100 µM

Hi there! I need IC50 for each item below, if you can.
1. CC(NS(=O)(=O)Cc1ccccc1)B(O)O (stereo not shown) [3 c]
2. O=C(Cc1ccc(-c2nn[nH]n2)cc1)NCB(O)O [1 b]
3. Nc1nnc(SCC(=O)NC(Cn2cc(C(=O)O)nn2)B(O)O)s1 (stereo not shown) [2 c]
4. O=C(Cc1ccc(O)c(O)c1)NCB(O)O [1 g]
5. O=C(NCB(O)O)c1ccc(-c2nnn[nH]2)cc1 [1 e]
6. NC(=O)c1cccc(-c2cn(CB(O)O)nn2)c1 [4 b]
7. Nc1cccc(-c2cn(CC(NC(=O)Cc3ccccc3)B(O)O)nn2)c1 (stereo not shown) [2 a]

1: > 100 µM; 2: > 100 µM; 3: > 100 µM; 4: > 100 µM; 5: > 100 µM; 6: > 100 µM; 7: > 100 µM
